Value source: ChEMBL document CHEMBL1132236

Consider the following molecules and their measured pIC50 readings.
# Target Or System: GABA-A receptor; anion channel
# Procedure Text: Inhibition of [3H]muscimol binding to Gamma-aminobutyric acid A (GABA-A) receptor of rat brain membranes
pIC50: −log10 of the molar value.

>>> result("NC[C@@H](CC(=O)O)c1ccc(Cl)cc1")
"< 4.00"

# input Quote pIC50 reported for "NC[C@H](CC(=O)O)c1ccc(Cl)cc1" please.
# output < 4.00

# input Quote pIC50 reported for "NCC[C@H](CC(=O)O)c1ccc(Cl)cc1" please.
# output < 4.00

# input Supply pIC50 value. Item: "NCC[C@@H](CC(=O)O)c1ccc(Cl)cc1"
# output < 4.00

# input For the molecule NCC(CCC(=O)O)c1ccc(Cl)cc1 (stereo not given) , give its measured pIC50 value.
# output < 4.00
